z-score by entry:
TARGET ENTITY: NADPH oxidase 4 (Homo sapiens)
PROTOCOL: compounds shifting NOX4 Amplex Red fluorescence – cell-based, HEK293-NOX4, tetracycline-induced, NOX inhibitor project, primary screen (AID 1160)
MEASUREMENT CONTEXT: HEK293-NOX4, Amplex Red H2O2 fluorescence, 45 min; higher = more signal, called active from +8 up or from −8 down

{"COMPOUND": "CC(c1ccccc1)C(O)C1C=CC2C(=O)N(C)C(=O)C2N1Nc1ccccc1 (stereo not given)", "TARGET ENTITY": "NADPH oxidase 4 (Homo sapiens)", "z-score": -3.77}
{"COMPOUND": "Cc1ccc(C(C)CC(O)C2C=CC3C(=O)N(c4ccccc4)C(=O)C3N2Nc2ccccc2)o1 (stereo not given)", "TARGET ENTITY": "NADPH oxidase 4 (Homo sapiens)", "z-score": -5.71}
{"COMPOUND": "COc1ccc(CCNC(=O)[C@@]2(Cc3ccccc3I)c3ccccc3C(=O)N(C3CCCCC3)[C@H]2c2ccc(CO)cc2)cc1", "TARGET ENTITY": "NADPH oxidase 4 (Homo sapiens)", "z-score": -1.09}
{"COMPOUND": "COc1cc2c(cc1O)C(C1CC1)N(C)CC2 (stereo not given)", "TARGET ENTITY": "NADPH oxidase 4 (Homo sapiens)", "z-score": -2.57}
{"COMPOUND": "CCCC=C(CCC)[C@@H](NS(=O)(=O)CC12CCC(CC1=O)C2(C)C)c1ccc(C(=O)OC)cc1 (stereo not given in full)", "TARGET ENTITY": "NADPH oxidase 4 (Homo sapiens)", "z-score": 0.669}
{"COMPOUND": "COc1ccc([Si](C)(C)[C@@H]2[C@@H](CC(=O)N(CCO)Cc3ccccc3)O[C@]3(C(=O)N(Cc4cccc(N5CCCCC5=O)c4)c4ccccc43)[C@H]2C)cc1", "TARGET ENTITY": "NADPH oxidase 4 (Homo sapiens)", "z-score": 1.28}
{"COMPOUND": "CCOC(=O)C[C@H]1[C@H](OC(=O)Cc2ccc3c(c2)OCO3)[C@@H](NC(=O)c2ccc3ccccc3n2)c2cc(OCCCO)ccc2N1C(=O)c1ccccc1", "TARGET ENTITY": "NADPH oxidase 4 (Homo sapiens)", "z-score": 0.521}
{"COMPOUND": "COc1ccc([Si](C)(C)[C@H]2[C@H](CC(=O)N3Cc4ccccc4C[C@H]3CO)O[C@@]3(C(=O)N(Cc4ccc(N5CCOC5=O)cc4)c4ccccc43)[C@@H]2C)cc1", "TARGET ENTITY": "NADPH oxidase 4 (Homo sapiens)", "z-score": 0.611}
{"COMPOUND": "COc1ccc([Si](C)(C)[C@@H]2[C@@H](CCO)O[C@]3(C(=O)N(Cc4ccccc4)c4ccc(N5C(=O)c6cccc7cccc5c67)cc43)[C@H]2C)cc1", "TARGET ENTITY": "NADPH oxidase 4 (Homo sapiens)", "z-score": 0.1}
{"COMPOUND": "Cc1ccc(S[C@]2(C(=O)NCc3ccccc3)CC(=O)N(C3CCCCC3)[C@@H]2c2ccc(CO)cc2I)cc1", "TARGET ENTITY": "NADPH oxidase 4 (Homo sapiens)", "z-score": 0.193}
{"COMPOUND": "COC(=O)c1c(CC[C@@H](CO)NC(=O)N2CCC[C@H]2Cn2cc(C3(O)CCCCC3)nn2)oc(C(C)=O)c1C(=O)OC", "TARGET ENTITY": "NADPH oxidase 4 (Homo sapiens)", "z-score": -0.981}
{"COMPOUND": "CC(C)NC(=O)[C@@]1(C)c2ccccc2C(=O)N(Cc2ccc(OC(F)(F)F)cc2)[C@H]1c1ccc(CO)cc1", "TARGET ENTITY": "NADPH oxidase 4 (Homo sapiens)", "z-score": -0.667}
{"COMPOUND": "CCOC(=O)C[C@H]1[C@H](OC(=O)c2ccc(C(=O)c3ccccc3)cc2)[C@@H](NC(=O)c2ccc3ccccc3n2)c2cc(OCCCO)ccc2N1C(=O)Cc1ccc(OC)cc1", "TARGET ENTITY": "NADPH oxidase 4 (Homo sapiens)", "z-score": -0.298}
{"COMPOUND": "C=C[C@H]1C(C(=O)OCC)=CC[C@@H](c2ccccc2)N1S(=O)(=O)c1ccc(C)cc1", "TARGET ENTITY": "NADPH oxidase 4 (Homo sapiens)", "z-score": -0.613}
{"COMPOUND": "COc1ccc([Si](C)(C)[C@@H]2[C@@H](CC(=O)N3Cc4ccccc4C[C@H]3CO)O[C@]3(C(=O)N(Cc4ccc(N5C(=O)c6cccc7cccc5c67)cc4)c4ccccc43)[C@H]2C)cc1", "TARGET ENTITY": "NADPH oxidase 4 (Homo sapiens)", "z-score": 0.929}
